Entry source: ChEMBL document CHEMBL4513216

Listed here are compounds together with their documented cytotoxicity at 10 µM.
Experiment: Toxicity liver stage against HepG2, at 10uM
Format: cell-based
Parameters: test concentration 10 uM, cell line HepG2-A16-CD81EGFP
Settings: human, HepG2-A16-CD81EGFP cells; read-out: INHIBITION

compound: CN1CCCC[C@@H]2[C@H]1[C@@H](c1ccccc1)CCN2C(=O)c1cnccn1
unit-symbol: %
cytotoxicity at 10 µM: -3.81
//
compound: CN(CC(=O)N1CCN(c2cnccn2)CC1)c1ccc(Cl)cn1
unit-symbol: %
cytotoxicity at 10 µM: -0.487
//
compound: Cc1cccc(CN(Cc2ccccc2)Cc2nccs2)n1
unit-symbol: %
cytotoxicity at 10 µM: 12.4
//
compound: N[C@@H]1CC[C@H](C(=O)NCCc2nc(-c3ccccc3)cs2)C1
unit-symbol: %
cytotoxicity at 10 µM: -11.3
//
compound: Cc1cnn(CCNCc2cc(=O)n3cc(Cl)ccc3n2)c1
unit-symbol: %
cytotoxicity at 10 µM: 0.217
//
compound: CCOc1cccc(C(=O)Nc2ccn(CC)n2)c1
unit-symbol: %
cytotoxicity at 10 µM: 8.19
//
compound: CCOCC1CN(C(=O)C2=CCCC2)Cc2cnn(C)c21 (configuration not stated)
unit-symbol: %
cytotoxicity at 10 µM: 1.49
